Conditions: rat; liver microsomes; pH 7.4; 15.0 min; 1.0 µM
Everything with half-life lower than 10 min is not satisfied; everything else, including exactly 10 min, is satisfied.

INSERT INTO measurements (compound, categorylabel) VALUES
  ('Cc1cc(/C=C2/C(=O)Nc3ccccc32)cc(C)c1O', 'satisfied'),
  ('NC(=O)C1CCN(c2nc(-c3ccc4c(c3)OCCCO4)cs2)CC1', 'not satisfied'),
  ('Nc1c(-c2ccccc2)cnc2c(-c3ccccc3)cnn12', 'satisfied'),
  ('O=C(NCc1ccncc1)c1nc(-c2cccnc2)c2cnccn12', 'satisfied'),
  ('COc1ccc(-c2cc3nccn3c(Nc3ncccc3C(N)=O)n2)cc1OC', 'satisfied'),
  ('Cc1ccc(N(C)S(=O)(=O)c2ccc(-c3cnc(C4CC4)o3)cc2)cc1', 'not satisfied'),
  ('COC12C(COC(N)=O)C3=C(C(=O)C(C)=C(N)C3=O)N1CC1C2N1C (stereo not given)', 'satisfied'),
  ('CCN1CCN(c2ncc3c(n2)CCN(Cc2cc(Br)cs2)C3)CC1', 'not satisfied'),
  ('COc1ccc(C2c3[nH]c4ccc(OC)cc4c3CCN2C(=O)Nc2ccccc2)cc1 (stereo not given)', 'satisfied'),
  ('CN(C)C(=O)c1nc(-c2ccc(S(C)(=O)=O)cc2)c2cnccn12', 'satisfied');
